Source of measurements: paper PMC11510214

# system-tested: butyrylcholinesterase (BuChE) (Homo sapiens, UniProt P06276)
# Sequence (P06276 29-602): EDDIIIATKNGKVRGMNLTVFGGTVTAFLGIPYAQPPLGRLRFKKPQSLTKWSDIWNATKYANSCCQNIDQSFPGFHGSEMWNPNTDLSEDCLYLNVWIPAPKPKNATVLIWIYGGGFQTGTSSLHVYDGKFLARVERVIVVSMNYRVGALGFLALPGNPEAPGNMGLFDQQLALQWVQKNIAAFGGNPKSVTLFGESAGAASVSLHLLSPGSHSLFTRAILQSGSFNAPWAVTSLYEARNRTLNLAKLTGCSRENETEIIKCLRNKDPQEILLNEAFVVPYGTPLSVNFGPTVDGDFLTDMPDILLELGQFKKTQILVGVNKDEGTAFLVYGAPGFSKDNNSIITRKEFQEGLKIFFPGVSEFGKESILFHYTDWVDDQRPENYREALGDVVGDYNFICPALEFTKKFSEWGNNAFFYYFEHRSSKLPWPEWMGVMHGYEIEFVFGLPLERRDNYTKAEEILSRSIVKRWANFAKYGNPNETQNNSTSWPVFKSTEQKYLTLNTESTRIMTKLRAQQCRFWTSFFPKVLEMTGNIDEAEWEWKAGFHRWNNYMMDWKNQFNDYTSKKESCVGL
# protocol-text: biochemical
# condition: read-out: % inhibition BuChE
Measured inhibition at 1 µM, listed per entry for reference.
endpoint-label: inhibition at 1 µM (%)

compound	observed-value
CCN(C)C(=O)Oc1cccc([C@H](C)N(C)C)c1 [Rivastigmine, rivastigmine, reference compound]	7
CC(=O)OC1COC(n2cc(CSc3ccc(-c4ccccn4)nn3)nn2)C(OC(C)=O)C1OC(C)=O (stereo not drawn)	67
CC(=O)OC[C@H]1O[C@@H](n2cc(CSc3ccc(-c4ccccn4)nn3)nn2)[C@H](OC(C)=O)[C@@H](OC(C)=O)[C@H]1OC(C)=O	20
OC[C@H]1O[C@@H](n2cc(CSc3ccc(-c4ccccn4)nn3)nn2)[C@H](O)[C@@H]1O	22
COc1cc2c(cc1OC)C(=O)C(CC1CCN(Cc3ccccc3)CC1)C2 (stereo not drawn) [Donepezil, donepezil, reference compound]	65
OCCn1cc(CSc2ccc(-c3ccccn3)nn2)nn1	31
NCCn1cc(CSc2ccc(-c3ccccn3)nn2)nn1	12
C#CCSc1ccc(-c2ccccn2)nn1	27
OCCOCCn1cc(CSc2ccc(-c3ccccn3)nn2)nn1	56
OC[C@H]1O[C@@H](n2cc(CSc3ccc(-c4ccccn4)nn3)nn2)[C@H](O)[C@@H](O)[C@@H]1O	23
CC(=O)OCC1OC(n2cc(CSc3ccc(-c4ccccn4)nn3)nn2)C(OC(C)=O)C(OC(C)=O)C1OC(C)=O (stereo not drawn)	61
CC(=O)OC[C@H]1O[C@@H](n2cc(CSc3ccc(-c4ccccn4)nn3)nn2)[C@H](OC(C)=O)[C@@H]1OC(C)=O	19

====

# system-tested: butyrylcholinesterase (BuChE) (Homo sapiens, UniProt P06276)
# protocol-text: biochemical
# condition: read-out: % inhibition BuChE
Label no (0) if inhibition at 10 µM falls below 50%; label yes (1) in every other case.

compound	label-class
CC(=O)OC1COC(n2cc(CSc3ccc(-c4ccccn4)nn3)nn2)C(OC(C)=O)C1OC(C)=O (stereo not drawn)	yes (1)
CC(=O)OCC1OC(n2cc(CSc3ccc(-c4ccccn4)nn3)nn2)C(OC(C)=O)C(OC(C)=O)C1OC(C)=O (stereo not drawn)	yes (1)
OC[C@H]1O[C@@H](n2cc(CSc3ccc(-c4ccccn4)nn3)nn2)[C@H](O)[C@@H](O)[C@@H]1O	no (0)
OC[C@H]1O[C@@H](n2cc(CSc3ccc(-c4ccccn4)nn3)nn2)[C@H](O)[C@@H]1O	yes (1)
COc1cc2c(cc1OC)C(=O)C(CC1CCN(Cc3ccccc3)CC1)C2 (stereo not drawn) [Donepezil, donepezil, reference compound]	yes (1)
OCCOCCn1cc(CSc2ccc(-c3ccccn3)nn2)nn1	yes (1)
NCCn1cc(CSc2ccc(-c3ccccn3)nn2)nn1	no (0)
C#CCSc1ccc(-c2ccccn2)nn1	yes (1)
CC(=O)OC[C@H]1O[C@@H](n2cc(CSc3ccc(-c4ccccn4)nn3)nn2)[C@H](OC(C)=O)[C@@H](OC(C)=O)[C@H]1OC(C)=O	no (0)
CCN(C)C(=O)Oc1cccc([C@H](C)N(C)C)c1 [Rivastigmine, rivastigmine, reference compound]	no (0)
CC(=O)OC[C@H]1O[C@@H](n2cc(CSc3ccc(-c4ccccn4)nn3)nn2)[C@H](OC(C)=O)[C@@H]1OC(C)=O	no (0)
